- ASSAY_SYSTEM: hURAT1 (Homo sapiens, UniProt Q96S37)
- Sequence (Q96S37 1-553): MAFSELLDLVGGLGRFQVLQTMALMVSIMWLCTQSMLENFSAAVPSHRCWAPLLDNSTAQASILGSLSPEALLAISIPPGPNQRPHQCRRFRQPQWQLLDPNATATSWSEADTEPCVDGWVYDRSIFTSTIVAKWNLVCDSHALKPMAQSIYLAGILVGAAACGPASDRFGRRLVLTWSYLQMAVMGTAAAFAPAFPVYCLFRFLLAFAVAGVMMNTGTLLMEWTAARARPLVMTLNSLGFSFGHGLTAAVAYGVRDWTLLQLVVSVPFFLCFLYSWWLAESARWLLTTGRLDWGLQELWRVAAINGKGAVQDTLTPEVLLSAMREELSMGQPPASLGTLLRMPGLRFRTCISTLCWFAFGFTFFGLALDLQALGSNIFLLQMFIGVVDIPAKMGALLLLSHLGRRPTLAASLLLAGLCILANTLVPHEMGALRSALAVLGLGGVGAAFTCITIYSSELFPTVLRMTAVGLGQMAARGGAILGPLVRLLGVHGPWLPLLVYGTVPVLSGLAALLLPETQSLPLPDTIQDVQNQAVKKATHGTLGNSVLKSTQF
- TEST_DETAILS: Inhibition assay of uric acid transport in HEK293-hURAT1 transfection cell line
- Assay type: cell-based
- TEST_CONDITIONS: 500 nM; HEK293-hURAT1 transfection cell line; 14C-uric acid; average of three tests; read-out: Inhibitory rates of uric acid transport, ±SD (%)
Lab note: anything with inhibition at 0.5 µM at or over 60% counts as 1; the rest go in -1.

>>> class_label("CCCc1nc2ccccn2c1C(=O)c1cc(Br)c(O)c(Br)c1 [Compound 41]")
-1
>>> class_label("CCc1nc2ccc(OC)cn2c1C(=O)c1cc(Br)c(O)c(Br)c1 [Compound 33]")
1
>>> class_label("CCc1nc2cc(C)c(Br)cn2c1C(=O)c1cc(Br)c(O)c(Br)c1 [Compound 56]")
1
>>> class_label("CCc1nc2ccccn2c1C(=O)c1cc(C)c(O)c(I)c1 [Compound 12]")
-1
>>> class_label("CCc1nc2ccccn2c1C(=O)c1cc(Br)c(O)c(C(F)(F)F)c1 [Compound 29]")
1
>>> class_label("CCc1nc2ccc(C)cn2c1C(=O)c1cc(Br)c(O)c(Br)c1 [Compound 30]")
1
>>> class_label("CCc1nc2ccc(F)cn2c1C(=O)c1cc(Cl)c(O)c(I)c1 [Compound 19]")
1
